Assay: qHTS assay to test for compound auto fluorescence at 535 nm (green) in HEK293 cell free culture (AID 720682); note: % is set by controls: 0 for no effect and ±100 for the full control effect
Settings: cell-free medium, green autofluorescence 485/535 nm, active compounds read high; series mostly up to 91.3 µM
Calls of active or inactive are those of the source. Calls come from the whole dose curve; as a rule, active = well fitted curve in the direction sought with a large enough effect in the repeat runs; inconclusive = weak or mixed curves; inactive = flat fitted curve, though single readings scatter.
Readout type: activity change

Example results:
Molecule	activity change
CCC(C)c1cc(C(C)(C)C)c(O)c(C(C)(C)C)c1 (configuration not stated)	inactive
CC(C)(COC(=O)c1ccccc1)COC(=O)c1ccccc1	inactive
S=C([S-])NCCNC(=S)[S-].[Mn+2]	inactive
COc1cccc(N(C)C(=S)Oc2ccc3c(c2)CCCC3)n1	inactive
COc1cc2nc(N(C)CCCNC(=O)C3CCCO3)nc(N)c2cc1OC (configuration not stated)	-0.131% [at 18.6 µM] (inactive)

For every record below, what is its activity change?
1. C=C(C)C(=O)OCCO
2. CCOC(=O)NCCOc1ccc(Oc2ccccc2)cc1
3. O=CC1CC=CCC1 (configuration not stated)
4. Cc1oc(-c2ccccc2)nc1CCOc1cccc2c1ccn2CCC(=O)O

["inactive", "inactive", "inactive", "inactive"]

Quick batch: activity change for everything below.
1. CCCCCCCCCCCc1ccccc1
2. CC1=CCCC(C)(C)C12CCC(C)O2 (configuration not stated)
3. CCOC(=O)COC(=O)c1cc(Oc2ccc(C(F)(F)F)cc2Cl)ccc1[N+](=O)[O-]
4. CCN(CC)CCOC(=O)C(Cc1cccc2ccccc12)CC1CCCO1 (configuration not stated)
5. CN(Cc1ccc(C(C)(C)C)cc1)Cc1cccc2ccccc12

inactive
inactive
inactive
-0.0273% [at 18.6 µM] (inactive)
inactive

Give activity change for each of the items listed below.
1. C[C@@H]1C[C@H]2O[C@@]3(O[C@@H]2C(C)(C)O)[C@H](O)[C@@]2(C)[C@@H]4CC[C@H]5C(C)(C)[C@@H](O[C@@H]6OC[C@@H](O)[C@H](O)[C@H]6O)CC[C@@]56C[C@@]46CC[C@]2(C)[C@@H]13
2. COC(C)(C)CCO
3. CCO[C@H](Cc1ccc(OCCc2ccc(OS(C)(=O)=O)cc2)cc1)C(=O)O

1. inactive
2. inactive
3. inactive
